Record form. Attribute: half-life. Fill in for each entry.
# test: Pharmacokinetics in mice (IV and PO), plasma LC-MS/MS
# Format: in vivo, Male ICR (CD-1) mice
# run_parameters: male, ICR (CD-1), mouse, plasma, 1 mg/kg, IV (1 mpk), read-out: T½ (converted)
Where a name gives a salt, the structure may show the parent alone.
Express it in h; write the number only.

Give the measured half-life for `COc1ccc(C(=O)N(CC(C)(C)CCCCCCCCCCCCCCCCCC(=O)NCCC[N+](C)(CC(=O)NCCN)CC(=O)NCCN)c2cccc(C)n2)c(N2CCC(COc3cc([C@@H](CC(=O)O)C4CC4)ccn3)CC2)c1`
8.9

Give the measured half-life for `COc1ccc(C(=O)N(CC(C)(C)CCCCCCCCCCCCCCCCCCCC(=O)NCCCN(CC(=O)O)CC(=O)O)c2cccc(C)n2)c(N2CCC(COc3cc([C@@H](CC(=O)O)C4CC4)ccn3)CC2)c1`
6.5

Give the measured half-life for `COc1ccc(C(=O)N(CC(C)(C)CCCCCCCCCCCCCCCCCC(=O)NCCC[N+]23CC[N+](C)(CC2)CC3)c2cccc(C)n2)c(N2CCC(COc3cc([C@@H](CC(=O)O)C4CC4)ccn3)CC2)c1`
4.7

Give the measured half-life for `COc1ccc(C(=O)N(CC(C)(C)CCCCCCCCCCCCCCCCCCCC(=O)NCC[N+](C)(CC(=O)NCCN)CC(=O)NCCN)c2cccc(C)n2)c(N2CCC(COc3cc([C@@H](CC(=O)O)C4CC4)ccn3)CC2)c1`
8.2

Give the measured half-life for COc1ccc(C(=O)N(CC(C)(C)CCCCCCCCCCCCCCCCCC(=O)NCCC[N+]23CCN(CC2)CC3)c2cccc(C)n2)c(N2CCC(COc3cc([C@@H](CC(=O)O)C4CC4)ccn3)CC2)c1 [Example 18, TFA salt]
5.1

Give the measured half-life for `COc1ccc(C(=O)N(CC(C)(C)CCCCCCCCCCCCCCCCCCCCCC[N+]23CCN(CC2)CC3)c2cccc(C)n2)c(N2CCC(COc3cc([C@@H](CC(=O)O)C4CC4)ccn3)CC2)c1`
7.2

Give the measured half-life for COc1ccc(C(=O)N(CC(C)(C)CCCCCCCCCCCCCCCCCCCC(=O)NCCC[N+](C)(CC(=O)[O-])CC(=O)O)c2cccc(C)n2)c(N2CCC(COc3cc([C@@H](CC(=O)O)C4CC4)ccn3)CC2)c1 (stereo partly shown)
6.7
